assay: Hemolytic activity in human RBC assessed as hemolytic rate incubated measured upto 64 ug/ml; format: toxicity, cell-based, Erythrocyte; conditions: human red blood cells (erythrocytes), up to 64 µg/mL, read-out: Activity
Outcome Measure: hemolysis (%)
Return type: number; implicit unit %.

Input line: Query (compound): CCCCCCCCn1cc(C(=O)OCC)c(=O)c2cc(F)c(C(C#N)C(=O)OCC)cc21 (stereo unspecified) ; field requested: hemolysis
Output line: 50

###

test system: Escherichia coli; assay: Antibacterial activity against Escherichia coli ATCC 25922 assessed growth inhibition by micro broth dilution method; type: functional
Outcome Measure: MIC (µg/mL)
Return type: number; implicit unit µg/mL.

Input line: Query (molecule): CCOC(=O)c1cn(C2CC2)c2cc(F)c(F)cc2c1=O ; field requested: MIC
Output line: 64

Input line: Now consider CCOC(=O)c1cn(CC=C(C)C)c2cc(F)c(F)cc2c1=O .
Output line: 64

Input line: Now consider CCOC(=O)c1cn(Cc2cnc(Cl)s2)c2cc([C-](C#N)C(=O)OCC)c(F)cc2c1=O.[Na+] (centres undefined) .
Output line: 8

---
Input line: Query (molecule): CCCCCCCCCCCCn1cc(C(=O)OCC)c(=O)c2cc(F)c(F)cc21 ; field requested: MIC
Output line: 64

Input line: Now consider CCOC(=O)c1cn(Cc2ccc(Cl)c(Cl)c2)c2cc(F)c(F)cc2c1=O .
Output line: 2

Input line: Now consider CCOC(=O)C(C#N)c1c(F)cc2c(=O)c(C(=O)O)cn3c2c1OC[C@@H]3C (some centres undefined) .
Output line: 1

Input line: Now consider CCOC(=O)c1cn(CC(=O)N2CCN(C(=O)OC(C)(C)C)CC2)c2cc([C-](C#N)C(=O)OCC)c(F)cc2c1=O.[Na+] (centres undefined) .
Output line: 16

Input line: Now consider CCOC(=O)c1cn(Cc2ccccn2)c2cc([C-](C#N)C(=O)OCC)c(F)cc2c1=O.[Na+] (centres undefined) .
Output line: 128

Input line: Now consider CCOC(=O)c1cn(CC2CC2)c2cc([C-](C#N)C(=O)OCC)c(F)cc2c1=O.[Na+] (centres undefined) .
Output line: 4

###

Below, each of the molecules is paired with its reported MIC value.
tested on: Staphylococcus aureus; assay: Antibacterial activity against Staphylococcus aureus assessed growth inhibition by micro broth dilution method; type: functional

Input line: Query (molecule): CCOC(=O)c1cn(CC)c2c(F)c(F)c(F)cc2c1=O ; field requested: MIC
Output line: 32 µg/mL

Input line: Now consider CCOC(=O)c1cn(CC(=O)N2CCN(C(=O)OC(C)(C)C)CC2)c2cc([C-](C#N)C(=O)OCC)c(F)cc2c1=O.[Na+] (centres undefined) .
Output line: 256 µg/mL

Input line: Now consider CCOC(=O)c1cn(Cc2cnc(Cl)s2)c2cc([C-](C#N)C(=O)OCC)c(F)cc2c1=O.[Na+] (centres undefined) .
Output line: 32 µg/mL

---
Input line: Query (molecule): CCOC(=O)c1cn2c3c(c(F)c(F)cc3c1=O)OC[C@@H]2C ; field requested: MIC
Output line: 128 µg/mL

Input line: Now consider CCCCCCCCn1cc(C(=O)OCC)c(=O)c2cc(F)c([C-](C#N)C(=O)OCC)cc21.[Na+] (centres undefined) .
Output line: 16 µg/mL

Input line: Now consider CCOC(=O)c1cn(CC2CCC2)c2cc([C-](C#N)C(=O)OCC)c(F)cc2c1=O.[Na+] (centres undefined) .
Output line: 8 µg/mL

Input line: Now consider CCOC(=O)c1cn(Cc2ccccn2)c2cc(F)c(F)cc2c1=O .
Output line: 64 µg/mL

Input line: Now consider CCOC(=O)c1cn(Cc2ccccc2)c2cc(C(C#N)C(=O)OCC)c(F)cc2c1=O (centres undefined) .
Output line: 8 µg/mL

Input line: Now consider C#CCn1cc(C(=O)OCC)c(=O)c2cc(F)c(F)cc21 .
Output line: 128 µg/mL

###

experiment: Half life in mouse at 10 mg/kg, iv; type: ADME, organism-based; conditions: in vivo
Outcome Measure: half-life (min)
Return type: number; implicit unit min.

Input line: Query (compound): CCCCCCCCn1cc(C(=O)OCC)c(=O)c2cc(F)c([C-](C#N)C(=O)OCC)cc21.[Na+] (stereo unspecified) ; field requested: half-life
Output line: 12

###

assay: Cmax in mouse at 10 mg/kg, iv; format: ADME, organism-based; conditions: in vivo
Outcome Measure: Cmax (ng/mL)
Return type: number; implicit unit ng/mL.

Input line: Query (compound): CCCCCCCCn1cc(C(=O)OCC)c(=O)c2cc(F)c([C-](C#N)C(=O)OCC)cc21.[Na+] (stereo unspecified) ; field requested: Cmax
Output line: 549

###

tested on: Staphylococcus aureus; experiment: Antibacterial activity against Staphylococcus aureus assessed growth inhibition by micro broth dilution method; format: functional
API: label(entry) gives TRUE if the entry's MIC is strictly smaller than 60 µg/mL; on equality or larger values it gives FALSE.

Input line: Criterion: MIC strictly below 60 µg/mL. Is it met by CCOC(=O)C(C#N)c1c(F)cc2c(=O)c(C(=O)O)cn3c2c1OC[C@@H]3C (some centres undefined) ?
Output line: TRUE

Input line: Now consider CCCCCCCCCCCCn1cc(C(=O)OCC)c(=O)c2cc(F)c(F)cc21 .
Output line: TRUE

Input line: Now consider CCOC(=O)c1cn(CC)c2c(F)c([C-](C#N)C(=O)OCC)c(F)cc2c1=O.[Na+] (centres undefined) .
Output line: TRUE

Input line: Now consider CCCCCCCCn1cc(C(=O)OCC)c(=O)c2cc(F)c(F)cc21 .
Output line: TRUE

Input line: Now consider CCOC(=O)c1cn(Cc2ccc(F)cc2F)c2cc(F)c(F)cc2c1=O .
Output line: FALSE

Input line: Now consider CCOC(=O)C(C#N)c1cc2c(cc1F)c(=O)c(C(=O)O)cn2CC (centres undefined) .
Output line: TRUE

Input line: Now consider CCOC(=O)c1cn(Cc2ccc(Cl)c(Cl)c2)c2cc(F)c(F)cc2c1=O .
Output line: TRUE

Input line: Now consider CCOC(=O)c1cn(Cc2ccc(Cl)cc2Cl)c2cc(F)c(F)cc2c1=O .
Output line: FALSE

---
Input line: Criterion: MIC strictly below 60 µg/mL. Is it met by CCCCCCn1cc(C(=O)OCC)c(=O)c2cc(F)c([C-](C#N)C(=O)OCC)cc21.[Na+] (centres undefined) ?
Output line: TRUE

Input line: Now consider CCCCCCCCCCCCn1cc(C(=O)OCC)c(=O)c2cc(F)c([C-](C#N)C(=O)OCC)cc21.[Na+] (centres undefined) .
Output line: TRUE

Input line: Now consider CCCCCCCCn1cc(C(=O)O)c(=O)c2cc(F)c(C(C#N)C(=O)OCC)cc21 (centres undefined) .
Output line: TRUE

Input line: Now consider CCOC(=O)C(C#N)c1cc2c(cc1F)c(=O)c(C(=O)O)cn2Cc1ccc(Cl)c(Cl)c1 (centres undefined) .
Output line: FALSE

Input line: Now consider CCOC(=O)c1cn(Cc2ccc(Cl)c(Cl)c2)c2cc(C(C#N)C(=O)OCC)c(F)cc2c1=O (centres undefined) .
Output line: TRUE

Input line: Now consider CCOC(=O)c1cn(Cc2ccc(Cl)c(Cl)c2)c2cc([C-](C#N)C(=O)OCC)c(F)cc2c1=O.[Na+] (centres undefined) .
Output line: FALSE

Input line: Now consider CCOC(=O)c1cn(Cc2ccc([N+](=O)[O-])cc2)c2cc(F)c(F)cc2c1=O .
Output line: FALSE

Input line: Now consider CCOC(=O)c1cn(Cc2ccc(C)cc2)c2cc([C-](C#N)C(=O)OCC)c(F)cc2c1=O.[Na+] (centres undefined) .
Output line: TRUE

Input line: Now consider CCOC(=O)c1cn(CC=C(C)C)c2cc(F)c(F)cc2c1=O .
Output line: FALSE

Input line: Now consider CCOC(=O)C(C#N)c1c(F)cc2c(=O)c(C(=O)O)cn(CC)c2c1F (centres undefined) .
Output line: TRUE

Input line: Now consider CCCCCn1cc(C(=O)OCC)c(=O)c2cc(F)c([C-](C#N)C(=O)OCC)cc21.[Na+] (centres undefined) .
Output line: TRUE

###

experiment: Half life in mouse at 10 mg/kg, po; assay type: ADME, organism-based; conditions: in vivo
Outcome Measure: half-life (h)
Return type: number; implicit unit h.

Input line: Query (compound): CCCCCCCCn1cc(C(=O)OCC)c(=O)c2cc(F)c([C-](C#N)C(=O)OCC)cc21.[Na+] (stereo unspecified) ; field requested: half-life
Output line: 2.21
